Origin of measurements: patent US20230303994

- assayed_target: pre-pro-insulin glargine
quantity_measured: Yield

A selection of reference data follows.
* trypsin variant SEQ ID NO: 106 (protein) IVGGYTCAANSIPYQVSLNSGSHRCGGSLINSQWVVSAAHCYKSRIQVRLGEHNIHVLEGNEQFINAAKIITHPNFNPNTLDNDIMLIKLSSPATLNSAVATVSLPTSCAAAGTECLISGWGNTCSSGSSMPSLLQCLKAPVLSDSSCKSSYPGQITGNMICVGFLEGGADACQGDSGGPVVCNGQLQGIVSSGYGCAQKNKPGVYTKVCNYVNWIQQTIAAN | > 90%
* trypsin variant SEQ ID NO: 24 (protein) IVGGYTCAANSIPYQVSLNSGSHRCGGSLINSQWVVSAAHCYKSRIQVRLGEHNIDVLEGNEQFINAAKIITHPNFNGNTLDNDIMLIKLSSPATLNSRVATVSLPRSCAAAGTECLISGWGNTKSSGSSYPSLLQCLKAPVLSDSSCKSSYPGQITGNMICVGFLEGGYDACQGDSGGPVVCNGQLQGIVSSGYGCAQKNKPGVYTKVCNYVNWIQQTIAAN | > 80%
* trypsin variant SEQ ID NO: 82 (protein) IVGGYTCAANSIPYQVSLNSGSHRCGGSLINSQWVVSAAHCYKPRIQVRLGEHNIHVLEGNEQFINAAKIITHPNFNPNTLDNDIMLIKLSSPATLNSHVATVSLPRSCAAAGTECLISGWGNTCSSGSSMPSLLQCLKAPVLSDSSCKSSYPGQITGNMICVGFLEGGKDACQGDSGGPVVCNGQLQGIVSSGYGCAQKNKPGVYTKVCNYVNWIQQTIAAN | > 80%
* trypsin variant SEQ ID NO: 19 (protein) IVGGYTCAANSIPYQVSLNSGSHRCGGSLINSQWVVSAAHCYKSRIQVRLGEHNIDVLEGNEQFINAAKIITHPNFNGNTLDNDIMLIKLSSPATLNSRVATVSLPRSCAAAGTECLISGWGNTCSSGSSYPSLLQCLKAPVLSDSSCKSSYPGQITGNMICVGFLEGGKDACQGDSGGPVVCNGQLQGIVSSGYGCAQKNKPGVYTKVCNYVNWIQQTIAAN | > 80%

Req: Return reported Yield; argument: trypsin variant SEQ ID NO: 98 (protein) IVGGYTCAANSIPYQVSLNSGSHRCGGSLINSQWVVSAAHCYKPRIQVRLGEHNIHVLEGNEQFINAAKIITHPNFNPNTLDNDIMLIKLSSPATLNSAVATVSLPTSCAAAGTECLISGWGNTASSGSSMPSLLQCLKAPVLSDSSCKSSYPGQITGNMICVGFLEGGADSCQGDSGGPVVCNGQLQGIVSSGYGCAQKNKPGVYTKVCNYVNWIQQTIAAN
Resp: > 90%

Req: Now try trypsin variant SEQ ID NO: 102 (protein) IVGGYTCAANSIPYQVSLNSGSHRCGGSLINSQWVVSAAHCYKPRIQVRLGEHNIHVLEGNEQFINAAKIITHPNFNPNTLDNDIMLIKLSSPATLNSHVATVSLPTSCAAAGTECLISGWGNTSSSGSSMPSLLQCLKAPVLSDSSCKSSYPGQITGNMICVGFLEGGADACQGDSGGPVVCNGQLQGIVSSGYGCAQKNKPGVYTKVCNYVNWIQQTIAAN .
Resp: > 90%

Req: Also check trypsin variant SEQ ID NO: 93 (protein) IVGGYTCAANSIPYQVSLNSGSHRCGGSLINSQWVVSAAHCYKSRIQVRLGEHNIDVLEGNEQFINAAKIITHPNFNPNTLDNDIMLIKLSSPATLNSNVATVSLPTSCAAAGTECLISGWGNTCSSGSSMPSLLQCLKAPVLSDSSCKSSYPGQITGNMICVGFLEGGADACQGDSGGPVVCNGQLQGIVSSGYGCAQKNKPGVYTKVCNYVNWIQQTIAAN
Resp: > 75%

Req: Also, trypsin variant SEQ ID NO: 95 (protein) IVGGYTCAANSIPYQVSLNSGSHRCGGSLINSQWVVSAAHCYKPRIQVRLGEHNIHVLEGNEQFINAAKIITHPNFNPNTLDNDIMLIKLSSPATLNSHVATVSLPRSCAAAGTECLISGWGNTSSSGSSMPSLLQCLKAPVLSDSSCKSSYPGQITGNMICVGFLEGGADACQGDSGGPVVCNGQLQGIVSSGYGCAQKNKPGVYTKVCNYVNWIQQTIAAN please.
Resp: > 90%

Req: // same read-out, input: trypsin variant SEQ ID NO: 78 (protein) IVGGYTCAANSIPYQVSLNSGSHRCGGSLINSQWVVSAAHCYKSRIQVRLGEHNIHVLEGNEQFINAAKIITHPNFNPNTLDNDIMLIKLSSPATLNSHVATVSLPTSCAAAGTECLISGWGNTCSSGSSYPSLLQCLKAPVLSDSSCKSSYPGQITGNMICVGFLEGGKDACQGDSGGPVVCNGQLQGIVSSGYGCAQKNKPGVYTKVCNYVNWIQQTIAAN
Resp: > 90%

Req: Queued: trypsin variant SEQ ID NO: 79 (protein) IVGGYTCAANSIPYQVSLNSGSHRCGGSLINSQWVVSAAHCYKPRIQVRLGEHNIHVLEGNEQFINAAKIITHPNFNPNTLDNDIMLIKLSSPATLNSHVATVSLPRSCAAAGTECLISGWGNTASSGSSMPSLLQCLKAPVLSDSSCKSSYPGQITGNMICVGFLEGGKDACQGDSGGPVVCNGQLQGIVSSGYGCAQKNKPGVYTKVCNYVNWIQQTIAAN
Resp: > 90%
